- measured-on: α-synuclein (αSyn) (Homo sapiens, UniProt P37840)
- test-method-notes: split Gaussia luciferase oligomerization assay; also FRET oligomerization, HT-CM-SPR hit (tethered)
- Format: biochemical
- Set-up: gene SNCA; αSyn-GLuc1 and αSyn-GLuc2 (split Gaussia luciferase fragment fused to the C-terminus of αSyn); monomeric αSyn in SPR
outcome-measure: IC50
Give the figure together with its unit, number first.

*Q* Need IC50 of Cc1c(-c2csc(NC(C(N)=O)C3CCNCC3)n2)sc2ccccc12 (stereo not shown) , thanks.
*A* 104 µM
